target: Lysosomal acid glucosylceramidase (Homo sapiens); assay: qHTS Assay for Inhibitors and Activators of N370S glucocerebrosidase as a Potential Chaperone Treatment of Gaucher Disease: Purified N370S Glucocerebrosidase; settings: purified N370S GC, 4-MU-glucoside fluorescence, 40 min; series mostly up to 76.9 µM
Results filed as inconclusive are left out. Active and inactive are the calls of the source. Calls come from the whole dose curve; as a rule, active = well fitted curve in the direction sought with a large enough effect; inconclusive = small, poorly fitted or top-dose-only effect, or effect the other way, or another doubt; inactive = no such curve, though single readings can be large or run the other way.
// allowed return values: yes (1) for active, no (0) for inactive

For CC(C)(C)C(=O)OCCNc1nc(-c2ccccc2)nc2ccccc12 , what call appears in the results of this test? yes (1)

For COc1ccc(-c2nc(N3CCN(S(=O)(=O)c4ccc(C)cc4)CC3)c3ccccc3n2)cc1 , what call appears in the results of this test? no (0)

For Cc1ccc(S(=O)(=O)N2CCN(c3nc(-c4cccs4)nc4ccccc34)CC2)cc1 , what call appears in the results of this test? no (0)

For O=S(=O)(c1ccc(F)cc1)N1CCN(c2nc(-c3ccccc3)nc3cc(Cl)ccc23)CC1 , what call appears in the results of this test? no (0)

For Cc1ccc(S(=O)(=O)N2CCN(c3nc(-c4ccc(F)cc4)nc4cc(Cl)ccc34)CC2)cc1 , what call appears in the results of this test? no (0)

For CC(C)C(C)NC(=O)CSc1nc2scc(-c3ccco3)c2c(=O)n1-c1ccccc1 (centres undefined) , what call appears in the results of this test? no (0)

For O=S(=O)(c1ccccc1)N1CCN(c2nc(-c3ccc(F)cc3)nc3cc(Cl)ccc23)CC1 , what call appears in the results of this test? no (0)

For S=C(NCCCc1cnc[nH]1)NCCCN(Cc1ccc(Cl)c(Cl)c1)c1ccc(Br)cn1 , what call appears in the results of this test? yes (1)

For O=S(=O)(c1ccc(F)cc1)N1CCN(c2nc(-c3cccc(Br)c3)nc3ccccc23)CC1 , what call appears in the results of this test? no (0)

* * *

Molecular target: Lysosomal acid glucosylceramidase (Homo sapiens) (UniProt P04062)
Sequence (P04062 whole entry N409S): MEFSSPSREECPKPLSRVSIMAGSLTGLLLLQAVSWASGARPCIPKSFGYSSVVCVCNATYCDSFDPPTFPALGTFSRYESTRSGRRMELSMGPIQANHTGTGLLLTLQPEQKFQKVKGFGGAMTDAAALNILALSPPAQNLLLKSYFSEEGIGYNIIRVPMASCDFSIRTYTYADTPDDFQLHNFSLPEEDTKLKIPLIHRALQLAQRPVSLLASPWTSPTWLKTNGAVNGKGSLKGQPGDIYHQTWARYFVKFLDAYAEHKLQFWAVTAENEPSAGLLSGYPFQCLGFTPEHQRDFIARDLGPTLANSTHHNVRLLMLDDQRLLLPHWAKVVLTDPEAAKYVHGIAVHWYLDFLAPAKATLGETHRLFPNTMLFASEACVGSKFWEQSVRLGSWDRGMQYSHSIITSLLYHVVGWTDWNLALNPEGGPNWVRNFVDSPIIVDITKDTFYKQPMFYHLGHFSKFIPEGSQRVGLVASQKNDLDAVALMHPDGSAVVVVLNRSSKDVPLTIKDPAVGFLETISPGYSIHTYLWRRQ
Assay: qHTS Assay for Inhibitors and Activators of N370S glucocerebrosidase as a Potential Chaperone Treatment of Gaucher Disease: Purified N370S Glucocerebrosidase
Details: purified N370S GC, 4-MU-glucoside fluorescence, 40 min; series mostly up to 76.9 µM
From the text: NIH Chemical Genomics Center [NCGC] NIH Molecular Libraries Probe Production Centers Network [MLPCN] […] NCGC Assay Protocol Summary: This is a fluorogenic enzyme assay with 4-methylumbelliferyl-beta-D-glucopyranoside as the substrate and purified N370S glucocerebrosidase as the enzyme preparation. Upon the hydrolysis of this fluorogenic substrate, the resulting product, […] which can be detected by a standard fluorescence plate reader. […]
Records with an inconclusive call do not appear. The source made the active and inactive calls. Calls come from the whole dose curve; as a rule, active = well fitted curve in the direction sought with a large enough effect; inconclusive = small, poorly fitted or top-dose-only effect, or effect the other way, or another doubt; inactive = no such curve, though single readings can be large or run the other way.
// allowed return values: TRUE (active), FALSE (inactive)

For Cc1ccc(-c2nc(N3CCN(S(=O)(=O)c4ccc(F)cc4)CC3)c3ccc(Cl)cc3n2)cc1 , what call appears in the results of this test? FALSE

For COc1ccc(-c2nc(N3CCN(S(=O)(=O)c4ccccc4)CC3)c3ccccc3n2)cc1 , what call appears in the results of this test? FALSE

For O=S(=O)(c1ccc(Cl)cc1)N1CCN(c2nc(-c3ccc(F)cc3)nc3cc(Cl)ccc23)CC1 , what call appears in the results of this test? FALSE

For N#Cc1ccc(S(=O)(=O)N2CCN(c3nc(-c4cccs4)nc4ccccc34)CC2)cc1 , what call appears in the results of this test? FALSE

For O=S(=O)(c1ccc2c(c1)OCCO2)N1CCN(c2nc(-c3cccs3)nc3ccccc23)CC1 , what call appears in the results of this test? FALSE

For c1csc(-c2nc(NCC3CCCO3)c3ccccc3n2)c1 (stereo not given) , what call appears in the results of this test? FALSE

For O=C(c1ccc2c(c1)OCCO2)N1CCN(c2nc(-c3cccs3)nc3ccccc23)CC1 , what call appears in the results of this test? FALSE

For O=S(=O)(Cc1ccccc1)N1CCN(c2nc(-c3cccs3)nc3ccccc23)CC1 , what call appears in the results of this test? FALSE

For O=S(=O)(c1ccc2c(c1)OCCO2)N1CCN(c2nc(-c3ccccc3)nc3ccccc23)CC1 , what call appears in the results of this test? FALSE

For Cc1ccccc1S(=O)(=O)N1CCN(c2nc(-c3cccs3)nc3ccccc23)CC1 , what call appears in the results of this test? FALSE

For O=S(=O)(c1ccc(F)cc1)N1CCN(c2nc(-c3cccs3)nc3cc(Cl)ccc23)CC1 , what call appears in the results of this test? FALSE

For O=S(=O)(c1ccc2ccccc2c1)N1CCN(c2nc(-c3cccs3)nc3ccccc23)CC1 , what call appears in the results of this test? FALSE

For O=S(=O)(c1ccc(Cl)cc1)N1CCN(c2nc(Nc3cc(Cl)ccc3O)nc3ccccc23)CC1 , what call appears in the results of this test? TRUE

For O=S(=O)(c1ccccc1Cl)N1CCN(c2nc(-c3cccs3)nc3ccccc23)CC1 , what call appears in the results of this test? FALSE

For O=S(=O)(c1cccc(C(F)(F)F)c1)N1CCN(c2nc(-c3cccs3)nc3cc(Cl)ccc23)CC1 , what call appears in the results of this test? FALSE

These data points were gathered from PubChem BioAssay AID2597.
